experiment: yeast display, Sf9 membrane polyspecificity reagent, FACS + sequencing; frameworks hold sequencing errors
value.type: polyreactivity (PSR sort gate)

Sample records with polyreactivity (PSR sort gate):
>  <sequence.entry>
QVQLVESGGGLVQAGGSLRLSCAASGLTFVRYAMGWYRQAPGKERELVAVISYSGARTYYADSVKGRFTISRDNAKNTVYLQMNSLKPEDTAVYYCAATFRGTFRRIWTDTRAYDYWGQGTQVTVSS

>  <result>
high polyreactivity

$$$$
>  <sequence.entry>
QVQLVESGGGLVQAGGSLRLSCAASGRTFWYYTMGWYRQAPGKERELVAAISSGGRTNYADSVKGRFTISRDNAKITVYLQMNSLKPEDTAVYYCATSRYYKYVERDYWGQGTQVTVSS

>  <result>
high polyreactivity

$$$$
>  <sequence.entry>
QVQLEESGGGLVQAGGSLRLSCAASGRIFVFYDMGWYRQAPGKERELVATITRSGGRTYYADSVKGRFTISRDNAKNTVYLQMNSLKPEDTAVYYCAARRYGKYDYWGQGTQVTVSS

>  <result>
low polyreactivity

$$$$
>  <sequence.entry>
QVQLVESGGGLVQAGGSLRLTCAASGSIVQVYPMVWYRQEPGKEREFVAAISYSGGGTYYADSVKGRFTISRDIAKNTVYLQMNILKPEDTAVYYCAADVSAWEEDIWRQGTQVTVSS

>  <result>
low polyreactivity

$$$$

Consider the sequence QVQLVESGRGLVQAGGSLRLSCAASGSILRNYAMGWYRQAPGKERELVAAISKSGGTTYYADSVKGRFTISRDNAKNTVYLQMNSLKPEDTAVYYCAARPGYLYDYWGQGTQVTVSS and give its recorded polyreactivity (PSR sort gate).
high polyreactivity

Consider the sequence QVQLVESGGGLVQAGGSLRLSCAASGSTFDPNAMGWYRQAPGKERELVAAITGRGGSTYYADSVKGRFTISRDTAKNTVYLQMNSLKPEDTAVYYCAAEYLGSIDTSYNYWGQGTQVTVSS and give its recorded polyreactivity (PSR sort gate).
low polyreactivity

Consider the sequence QVQLVESGGGLVQAGGSLRLSCAASGSTLKYNAMGWYRQATGKERELVAAISTSGGNTYYADSVKGRFTISRDNAKNTVYLQMNSLKPEDPAVYYFAKVLGYYYYDYDSWGQGTQVTLSS and give its recorded polyreactivity (PSR sort gate).
low polyreactivity

Consider the sequence QVQLVESGGGLVQAGGSLRLSCAASGFTFFSKAMGWYRQAPGKERELVAAITTNGGSTYYADSVKGRFTISRDNAKNTVYLQMNSLKPEETAVYYCAADYSLPWSWLYEYWGQGTQVTVSS and give its recorded polyreactivity (PSR sort gate).
low polyreactivity

Consider the sequence QVQLVETGGGLVQAGGILRLSCAASGRIFVVYAMGWYRQAPGKERELVASNSRGGRTYYADSVKGRFTISRDNEKNTVYLQMNILKTEDTAVYYCAVVVFLKNRDLFDYWGQGTQVTVSS and give its recorded polyreactivity (PSR sort gate).
low polyreactivity

Consider the sequence QVQLVESGGGLVQAGGSLRLSCAASGIIFPSYVMGWYRQAPGKERELVAAISSRGTSTYYADSVKGRFTISRDHAKNTVYLQMNSLKPEDTAVYYCAAKSFGTTTRSEYDYWGQGTQVTVSS and give its recorded polyreactivity (PSR sort gate).
high polyreactivity

Consider the sequence QVQLVESGGGLVQAGGSLRLSCAASGRIFGFYAMGWYRQAPGKEREFVAAITWSGTNTYYADSVKGRFTISRDNAKNTVYLQMNSLKPEDTAVYYCNARQYYKYGYWGQGTQVTVSS and give its recorded polyreactivity (PSR sort gate).
high polyreactivity

====

experiment: yeast display, Sf9 membrane polyspecificity reagent, FACS + sequencing; frameworks hold sequencing errors
value.type: polyreactivity (PSR sort gate)

>  <sequence.entry>
QVQLVESGGGLVQAGGSLRLSCAASGRIFDYNDMGWYRQAPGTERELVAGISSGGSTYYADSVKGRFTISRDNAKNTVYLQMNSLKPEDTAVYYCAAGGRPYRGYGYWGQGTQVTVSS

>  <polyreactivity (PSR sort gate)>
high polyreactivity

$$$$
>  <sequence.entry>
QVQLVESGGGLVQAGGSLRLSCAASGLSFLYAMGWYRHAPGKERELVAAISNGGSTYYADSVKGRFTISRDNAKNTDYLQMNSLKPEDTAVYYCAAAVTGSYASDYWGQGTQVTVSS

>  <polyreactivity (PSR sort gate)>
high polyreactivity

$$$$
>  <sequence.entry>
QVQLVESGGGLVQAGGSLRLSCAASGRIFRANAMGWYRQAPGKERELVAGITRRGGSTNYADSVKGRFTISRDNAKNTVYLQMNSLKPEDTAVYYCNRDVSLSTSIRMDYWGQGTQVTVSS

>  <polyreactivity (PSR sort gate)>
low polyreactivity

$$$$
>  <sequence.entry>
QVQLVESGGGLVQAGGSLRLSCAASGLIFAHYAMGWYRQAPGTERELVAGITSGGSTNYADSVKGRFTISRDNAKNTVYLQMNSLKPEDTAVYYCNADRAGFLGFYLYDYWGQGTQVTVSS

>  <polyreactivity (PSR sort gate)>
low polyreactivity

$$$$
>  <sequence.entry>
QVQLVESGGGLVQAGGSLRLSCAASGSTFTLYVMGWYRQAPGKERELVAAISSNGGRTYYADSVKGRFTISRDNAKNTVYLQMNSLKPEDTAVYYCAAGKIGRYHYDYWGQGTQVTVSS

>  <polyreactivity (PSR sort gate)>
high polyreactivity

$$$$
>  <sequence.entry>
QVQLVESGGGLVQAGGSLRLTCAASGYKFKSNVMGWYRQAPGKERELVAAISWSGGRTYYADSLKGRFTISRDNAKNTVYLQMNSLKPEDTAVYYCAAVGRQSNYYVDYDYWGQGTQVTVSS

>  <polyreactivity (PSR sort gate)>
high polyreactivity

$$$$
>  <sequence.entry>
QVQLVESGGGLVQAGGSLRLSCAASGITFSNYSMGWYRQAPGKERELVAAISKRGGSTYYADSVKGRFTISRDNAKNTVYLQMNSLKPEDTAVYNCAAAGVRVYVRSGLDYWGQGTQVTVSS

>  <polyreactivity (PSR sort gate)>
high polyreactivity

$$$$
>  <sequence.entry>
QVQLVESGGGLVQAGGSLRLSCAASGRIFEDNGMGWYRQAPGKEREFVATISWDGDRTYYADSVKGRFTISRDNAKNTVYFQMNSLKPEDTAVYYCNADLPLWPFRGYEYWGQGTQVTVSS

>  <polyreactivity (PSR sort gate)>
low polyreactivity

$$$$
>  <sequence.entry>
QVQLVESGGGLVQAGGSLRLSCAASGSTFSYYAMGWYRQAPGKERELVAAITSSGGSTYYADSVKGRFTISRDNAKNTVYLQMNSLKPEDTAVYYCNTAYHVPYDYWGQGTQVTVSS

>  <polyreactivity (PSR sort gate)>
low polyreactivity

$$$$
>  <sequence.entry>
QVQLVESGGGLVQAGGSLRLSCAASGNTFDYYTMGWYRQAPGKERELVAAISWNGGSTYYADSVKGRFTISRDNAKTTVYLQMNSLKPEDSAVYYCAVLYRSEYDWGQGTQVTVSS

>  <polyreactivity (PSR sort gate)>
low polyreactivity

$$$$

Consider the sequence QVQLVESGGGLVQAGGSLRLSCAASGNTFPVYAMGWYRQAPGKERELVAAINTSGGSTYYADSVKGRFTISRDNAKYTVYLQMNSLKPEDTAVYYCAADWSYYGDELYYWGQGTQVTVSS and give its recorded polyreactivity (PSR sort gate).
low polyreactivity

Consider the sequence QVQLVESGGGLVQAGGSLRLSCAASGSTFVDYAMGWYRQAPGKERELVAAINERGGSTYYADSVKGRFTISRDNAKNTVYLQMNSLKPEDTAVYYCAARRRTRSSHSWYIRYGYWGQGTQVTVSS and give its recorded polyreactivity (PSR sort gate).
low polyreactivity

Consider the sequence QVQLVESGGGLVQAGGSLRLSCAASGSTFNEYTMGWYRQAPGKERELVAAIRATDGSTYYADSVKGRFTISRDNAKNTVYLQMNSLKPEDTAVYYCAADYYWNDYWGQGTQVTVSS and give its recorded polyreactivity (PSR sort gate).
low polyreactivity

Consider the sequence QVQLVESGGGLVQAGGSLRLSCAASGRIFVYYAMGWYRQAPGKERELVASISYSGASTYYADSVKGRFTISRDNAKNTVYLQMNSLKPEDTAVYYCATDVRGVDGEDDYWGQGTQVTVSS and give its recorded polyreactivity (PSR sort gate).
low polyreactivity

Consider the sequence QVQLVESGGGLVQAGGSLRLSCAASGITFVRNAMGWYRQAPGKEREFVAAISGSGVSTYADSVKGRFTISRDNAKNTVYLQMNSLKQEDTAVYYCNTDEWYHFYHGSHKYDYWGQGTQVTVSS and give its recorded polyreactivity (PSR sort gate).
low polyreactivity

Consider the sequence QVQLVESGGGLVQAGGSLRLSCAASGSIFYTNAMGWYRQAPGKERELVAVITASGGSTYYADSVKGRFTISRDNAKNTVYLQMNSLKPEDTSVYYCAADPVFNYDYWGQGTQVTVSS and give its recorded polyreactivity (PSR sort gate).
low polyreactivity

Consider the sequence QFQLVESGGGLVQAGGSLRLSCAASGSTFNYNAMGWYRQAPGKERELVAAISSSGGSTYYADSVKGRITISRDNAKNTVYLQMNSLKPEDTAVYSCATGGSSRVRTEGDYWGQGTQVTVSS and give its recorded polyreactivity (PSR sort gate).
low polyreactivity

Consider the sequence QVQLVESGGGLVQAGGSLRLSCAASGGTFSRNAMGWYRQAPGKERELVAAITWSGTRTYYADSVKGRFTISRDNAKNTVYLQMNSLKPEDTAVYYCATKGRRSADDTLLDYWGQGTQVTVSS and give its recorded polyreactivity (PSR sort gate).
high polyreactivity

Consider the sequence QVKLVESGGVLVQAGGSLRLSCAASAFTFRWYSMGWYRQATGKERELVARISWDGGSTYYADSVKGRFTISRDNAKNTVYVQMNSLKPEDTAVYYCAIDWYYLRRNYDYWGQGTQVTLSS and give its recorded polyreactivity (PSR sort gate).
high polyreactivity

Consider the sequence QLQLQESGGLVQAGGSLRLSCAASGSISGRNVIGCYRQAPGKEREYVASITDGSSTNYADSVKGRFTISRDNAKNTVYLQMNSLKPKDTAVYYCAAYAQRAKSFGYWGRGTQVTVSS and give its recorded polyreactivity (PSR sort gate).
low polyreactivity

Consider the sequence QVQLVESGGGLVQAGGSLRLSCAASGRIFRRYAMGWYRQAPGKERELVAAISVTGGRTYYADSVKGRFTISRDNAKNTVYLQMNSLKPEDTAVYYCNTLQYQERYAYDYWGQGTQVTVSS and give its recorded polyreactivity (PSR sort gate).
high polyreactivity
